# Test system: NCI/ADR-RES ovarian
# experiment: NCI-60 one-dose screen, 48 h (100 = growth as untreated, 0 = no growth, -100 = all killed)
# particulars: 10 µM unless noted
The panel holds about 83,000 compounds, 20% with a hit somewhere; the sample as a whole holds those more often. Active and inactive are the calls of the source. How the source made its calls: active means growth percent below 10; inactive means the rest.
Measured growth values are reported for all entries that follow.
quantity_name: growth

compound=COc1ccc(-c2nc3cc(Cl)c(Cl)cc3n2CC(=O)N=Nc2c(O)[nH]c3ccccc23)cc1 quantity_name=growth result="44.3% (inactive)"
compound=CC(=O)NC(C)(C)C(=O)N1CCC[C@H]1C(=O)NC(C)(C)C(=O)N[C@@H](C)C(=O)NC(C)(C)C(=O)N[C@@H](C)C(=O)N[C@@H](CCC(N)=O)C(=O)NC(C)(C)C(=O)N[C@H](C(=O)NC(C)(C)C(=O)NCC(=O)N[C@@H](CC(C)C)C(=O)NC(C)(C)C(=O)N1CCC[C@H]1C(=O)N[C@H](C(=O)NC(C)(C)C(=O)NC(C)(C)C(=O)N[C@@H](CCC(N)=O)C(=O)N[C@@H](CCC(N)=O)C(=O)N[C@H](CO)Cc1ccccc1)C(C)C)C(C)C quantity_name=growth result="99.5% [4.25 µM] (inactive)"
compound=Cn1cc(-c2nn3cc(-c4cccnc4)nc3s2)c2cc(F)ccc21 quantity_name=growth result="75.7% (inactive)"
compound="C/C(=C(/C)C1CC1CCN(C(=O)c1ccccn1)S(=O)(=O)c1ccc(C)cc1)C1CCCCC1 (stereo not drawn)" quantity_name=growth result="81.9% (inactive)"
compound=N#Cc1c(-c2ccccc2)cc(-c2c[nH]c3ccccc23)nc1-c1c[nH]c2ccccc12 quantity_name=growth result="98.3% (inactive)"
compound=COc1ccc(Cn2cc3c(c2-c2cc(OC)c(OC)c(OC)c2)CCCc2cnoc2-3)cc1N quantity_name=growth result="15.5% (inactive)"
compound=O=C(CCCCCCN1CC(=O)N2[C@@H](c3ccccc3)c3[nH]c4ccccc4c3C[C@H]2C1=O)NO quantity_name=growth result="77.9% (inactive)"
compound=O=C1NC(=O)/C(=C/c2ccc(OCc3cc4ccccc4nc3Cl)cc2)S1 quantity_name=growth result="100% (inactive)"

---

# Tested on: HOP-62 NSCLC
# experiment: NCI-60 one-dose screen, 48 h (100 = growth as untreated, 0 = no growth, -100 = all killed)
# particulars: 10 µM unless noted
Compounds without any hit were thinned out: in the full panel of roughly 83,000, 20% have a hit.
Measured growth values are reported for all entries that follow.
quantity_name: growth (%)

molecule=C/C(Cc1ccc(Cl)cc1)=C(/c1ccccc1)c1ccc(OCCN)cc1 quantity_name=growth result_number=108
molecule=COc1ccc(-c2nc3cc(Cl)c(Cl)cc3n2CC(=O)N=Nc2c(O)[nH]c3ccccc23)cc1 quantity_name=growth result_number=45.3
molecule="C#CCOc1ccccc1C(Nc1ccccc1)c1nnnn1C1CCCCC1 (centres undefined)" quantity_name=growth result_number=103
molecule=COc1ccc(-c2nnc(/N=C3/C(=O)Nc4ccc(Br)cc43)o2)cc1 quantity_name=growth result_number=106
molecule=CC(C)C[C@H]1C(=O)O[C@H](C(C)C)C(=O)N(C)[C@@H](C(C)C)C(=O)O[C@H](C(C)C)C(=O)N(C)[C@@H](C(C)C)C(=O)O[C@H](C(C)C)C(=O)N1C quantity_name=growth result_number=14.7
molecule=CCN(CC)Cc1c(-c2cccc(OC(F)(F)F)c2)[nH]c2ccc(N3CCCC3)cc2c1=O quantity_name=growth result_number=103
molecule=CCOC(=O)c1c(NCC(=O)Nc2ccc(Br)cc2)sc2c1CCCC2 quantity_name=growth result_number=69.2
molecule=Oc1ccc(CSc2nnc(-c3cnccn3)n2-c2ccccc2)c2cccnc12 quantity_name=growth result_number=22.1
molecule=COc1cnc2c(c1)C(=O)c1c-2n(CCCn2ccnc2)c(=O)c2cc(OC)c(OC)cc12 quantity_name=growth result_number=-47.5

Cited source: PubChem BioAssay (NCI)
